Data credit: patent US20240270821A1

# subjectOfTest: hGLP-1R (Homo sapiens)
# Sequence (P43220 24-463): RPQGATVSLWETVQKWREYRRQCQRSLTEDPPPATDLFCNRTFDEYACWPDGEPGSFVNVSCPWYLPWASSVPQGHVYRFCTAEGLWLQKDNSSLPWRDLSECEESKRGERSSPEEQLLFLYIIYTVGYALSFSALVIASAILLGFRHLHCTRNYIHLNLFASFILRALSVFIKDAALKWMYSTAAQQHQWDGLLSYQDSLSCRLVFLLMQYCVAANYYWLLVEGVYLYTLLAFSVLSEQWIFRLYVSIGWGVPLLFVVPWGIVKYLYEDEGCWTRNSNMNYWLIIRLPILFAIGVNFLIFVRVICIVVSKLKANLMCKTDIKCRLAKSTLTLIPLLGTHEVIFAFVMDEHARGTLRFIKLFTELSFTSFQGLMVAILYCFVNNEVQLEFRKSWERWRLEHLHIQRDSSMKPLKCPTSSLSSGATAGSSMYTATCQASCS
# protocolDescription: Functional cAMP activity in the presence of 1% HSA
# Assay type: cell-based
# conditionSet: read-out: cAMP Rel EC50, hGLP-1R
Starred links: 1 amine or outer side, 2 acyl side, 3 side chain; linkers in the order of their positions; H or OH if unused. Non-standard residues stand in square brackets, D forms with d. Groups on a side chain read outwards from the residue. No end group written: not given here. *: point of attachment. C18 diacid = O=C(O)CCCCCCCCCCCCCCCCC(=O)*; γGlu = O=C(O)[C@H](CCC(=O)[*:2])N[*:1]; αMe4Pal = C[C@](N)(Cc1ccncc1)C(=O)O; αMeY = C[C@](N)(Cc1ccc(O)cc1)C(=O)O; 4Pal = N[C@@H](Cc1ccncc1)C(=O)O; αMeL = CC(C)C[C@](C)(N)C(=O)O; αMeS = C[C@](N)(CO)C(=O)O; Orn = NCCC[C@H](N)C(=O)O; AEEA = NCCOCCOCC(=O)O; Aib = CC(C)(N)C(=O)O
Please go through the items and note down their EC50.
I'd appreciate it if you wrote the number followed by its unit.

Y[Aib]QGTFTSD[4Pal][αMeS]Q[αMeL]LD[Orn]K([dE-γGlu-C18 diacid])AQ[αMe4Pal]QFIQ[αMeY]LIEGGPSSGEPPPSGGGE-NH2 [Example 1188] ... 77.1 nM
H-Y[Aib]QGTFTSD[4Pal]SK[αMeL]LDKK([γGlu-γGlu-C18 diacid])AQ[Aib]AFIEYLIE[Aib]GPSSGAPPPSGS-NH2 [Example 907] ... 123 nM

Moving on to the next substance.
# EC50 (substance: H-Y[Aib]QGTFTSDFS[Orn][αMeL]LDKK([AEEA-AEEA-γGlu-C18 diacid])AQ[Aib]AFIEYLLE[Aib]G[4Pal]SSGAPPPSGS-NH2 [Example 183] ) is 295 nM
